inhibition at 3 µM by entry:
targetOrSystem: β-secretase (BACE) (Homo sapiens, UniProt P56817)
Construct: purchased Panvera
Sequence (P56817 46-501): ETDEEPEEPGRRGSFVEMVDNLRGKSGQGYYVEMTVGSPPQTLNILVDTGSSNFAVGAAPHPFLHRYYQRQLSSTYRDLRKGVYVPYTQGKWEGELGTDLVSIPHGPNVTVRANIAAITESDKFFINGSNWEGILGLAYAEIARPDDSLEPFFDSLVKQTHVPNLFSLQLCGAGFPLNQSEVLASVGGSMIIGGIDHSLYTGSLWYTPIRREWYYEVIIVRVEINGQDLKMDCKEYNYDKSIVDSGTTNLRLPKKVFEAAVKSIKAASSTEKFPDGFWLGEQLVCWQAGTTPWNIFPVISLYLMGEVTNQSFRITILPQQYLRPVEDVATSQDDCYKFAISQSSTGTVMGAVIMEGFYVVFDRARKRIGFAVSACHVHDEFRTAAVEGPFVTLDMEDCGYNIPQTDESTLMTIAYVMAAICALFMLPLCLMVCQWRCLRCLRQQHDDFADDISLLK
test: BACE % Inhibition Assay ((Aedens)-[…]-(Dabcyl K-amide) substrate)
Format: biochemical
measurementContext: 3 μM compound; % error ±10%

| compound | unit | relationalOperator | inhibition at 3 µM |
| --- | --- | --- | --- |
| CCCN1Cc2cc(Oc3cccc(NC(=O)C4CCCCC4)c3)ccc2N=C1N | % | < | 30 |
| CN(C(=O)CC(CC(=O)N(C)C1CCCCC1)N1Cc2cc(Oc3ccccc3)ccc2N=C1N)C1CCCCC1 | % | = | 48 |
| CCCN1Cc2cc(Oc3cccc(N(C#N)CC4CCCCC4)c3)ccc2N=C1N | % | = | 35 |
| CCCC(CCC(=O)N(C)C1CCCCC1)N1Cc2cc(Oc3ccccc3)ccc2N=C1N (centres unmarked) | % | = | 72 |
| CC(C)CCC(=O)NCC(C1CCCCC1)N1Cc2cc(Oc3ccccc3)ccc2N=C1N (centres unmarked) | % | = | 119 |

----------
targetOrSystem: β-secretase (BACE) (Homo sapiens)
Construct: purchased Panvera
test: BACE Assay-1 (MCA-substrate, IC50)
Assay type: biochemical
measurementContext: procedure of Example 158
Classify: t when IC50 is strictly less than 1 µM; f when IC50 is not.

| compound | targetOrSystem | category |
| --- | --- | --- |
| CCCN1Cc2cc(Oc3cccc(NC(=O)C4CCCCC4)c3)ccc2N=C1N [Compound 44] | β-secretase (BACE) (Homo sapiens) | f |
| CCCN1Cc2cc(Oc3cccc(CNCc4ccccc4OC)c3)ccc2N=C1N [Compound 335] | β-secretase (BACE) (Homo sapiens) | t |
| CCCN1Cc2cc(Oc3cccc(CNCCCc4ccccc4)c3)ccc2N=C1N [Compound 430] | β-secretase (BACE) (Homo sapiens) | f |
| CCCN1Cc2cc(Oc3cccc(CN(C)Cc4c(C)cc(C)cc4C)c3)ccc2N=C1N [Compound 464] | β-secretase (BACE) (Homo sapiens) | f |
| NC1=Nc2ccc(Oc3ccccc3)cc2CN1[C@H](CNC(=O)C1CCCCC1)C1CCCCC1 [Compound 484] | β-secretase (BACE) (Homo sapiens) | f |
| CCCN1Cc2cc(Oc3cccc(CNCc4c(OC)cccc4OC)c3)ccc2N=C1N [Compound 340] | β-secretase (BACE) (Homo sapiens) | f |
| CN(C(=O)CCCN1Cc2cc(C(=O)c3ccccc3)ccc2N=C1N)C1CCCCC1 [Compound 10] | β-secretase (BACE) (Homo sapiens) | f |
| CCCN1Cc2cc(Oc3cccc(CNCc4c(C)cc(C)cc4C)c3)ccc2N=C1N [Compound 344] | β-secretase (BACE) (Homo sapiens) | t |
| NC1=Nc2ccc(Oc3ccccc3)cc2CN1C(CNC(=O)C1CCCC1)C1CCCCC1 (stereo not shown) [Compound 295] | β-secretase (BACE) (Homo sapiens) | t |

----------
Reported % Inhibition (FS) by item:
targetOrSystem: β-secretase (BACE) (Homo sapiens, UniProt P56817)
Construct: purchased Panvera
test: BACE FS1 % Inhibition Assay
Assay type: biochemical
measurementContext: 1 μM compound; FS1 substrate
recordedEndpoint: % Inhibition (FS) (%)

| molecule | recordedEndpoint | relationalOperator | measuredValue |
| --- | --- | --- | --- |
| CCCCC(CC)C(=O)NCCN1Cc2cc(-c3ccccc3C)ccc2N=C1N (stereo not shown) [Compound 662] | % Inhibition (FS) | = | 97 |
| CC(=O)N1CCC(C(=O)NCCN2Cc3cc(-c4ccccc4C)ccc3N=C2N)CC1 [Compound 695] | % Inhibition (FS) | < | 30 |
| CN(CC(=O)O)C(=O)CCC(C1CCCCC1)N1Cc2cc(Oc3ccccc3)ccc2N=C1N (stereo not shown) [Compound 767] | % Inhibition (FS) | = | 71 |
| CC(C)(C)C(=O)NCCN1Cc2cc(-c3cnc4ccccc4c3)ccc2N=C1N [Compound 674] | % Inhibition (FS) | < | 30 |
